assay: Study 2, Part 2: lenalidomide-temsirolimus pharmacokinetic interaction, open-label crossover in healthy subjects; type: in vivo, human; details: human; temsirolimus 25 mg IV + lenalidomide 25 mg (n = 11), whole blood; geometric mean (geometric CV %)
experimental_readout: AUC(0-inf)
Reply with the number and its unit after it.

query: # return recorded AUC(0-inf) for input CO[C@H]1C[C@@H]2CC[C@@H](C)[C@@](O)(O2)C(=O)C(=O)N2CCCC[C@H]2C(=O)O[C@H]([C@H](C)C[C@@H]2CC[C@@H](OC(=O)C(C)(CO)CO)[C@H](OC)C2)CC(=O)[C@H](C)/C=C(\C)[C@@H](O)[C@@H](OC)C(=O)[C@H](C)C[C@H](C)/C=C/C=C/C=C/1C
result: 2710 ng·h/mL
